Data credit: a melting point compilation (Tetko et al.; mined from patent text by program, amines drawn as free bases though some values may be those of a salt)

Endpoint: melting point

# count of solved cases: 4
CC(C)NCC(O)COc1cccc2c1CCC(O)C2 (stereo not given) = 136 to 141 °C
Nc1c(Br)cc(C2=NNC(=O)CC2)cc1Br = 212 to 214 °C
COC(=O)CC[C@@H](NC(=O)[C@@H](NC(=O)OC(C)(C)C)[C@@H](C)OCc1ccccc1)C(N)=O = 131 to 132 °C
CCC(O)(c1ccc(OCCN(C(C)C)C(C)C)cc1)c1ccccc1OC (stereo not given) = 46 to 47 °C

Task item: Recorded melting point of CCCCn1cncc1C(O)(c1ccc(Cl)cc1)c1ccc2c(c1)c(-c1cccc(Cl)c1)cc(=O)n2C (stereo not given) , please.
Reply: 175 °C

Task item: What about C[C@@H](NC(=O)c1c[nH]c2ncc(-c3nn(C)c4cc(F)ccc34)nc12)C1(C#N)CCCC1 ?
Reply: 300 to 315 °C

Task item: What about FC(F)(F)c1cc(C(F)(F)F)n2nc(SCc3ccccc3)nc2n1 ?
Reply: 78.5 to 80.5 °C
